test: qHTS assay to identify small molecule antagonists of the peroxisome proliferator-activated receptor gamma (PPARg) signaling pathway - cell viability counter screen (AID 743194); details: PPARg-bla HEK293H viability, CellTiter-Glo luminescence, 17 h; co-treated with 50 nM rosiglitazone; series mostly up to 62.6 µM; further: nearly all actives have a fitted effect of over 55% in size
Results filed as inconclusive are left out. Calls of active or inactive are those of the source. The call rests on the fitted dose curve; in most records, active means well fitted cell-killing curve with a large enough effect in the repeat runs; inconclusive means weak or mixed curves, or effect the other way; inactive means no such curve, though single readings can be large or run the other way.
Your response should consist of one outcome taken from yes for active, no for inactive

Q. Dear all, I need the recorded test outcome for CCC(C)(NC(=O)c1cc(Cl)c(C)c(Cl)c1)C(=O)CCl (configuration not stated) , thank you.
A. yes

Q. Dear all, I need the recorded test outcome for C#CCOC(C(=O)OCCN(C)C)(c1ccccc1)c1ccccc1 , thank you.
A. no

Q. Dear all, I need the recorded test outcome for ClP(Cl)(Cl)(Cl)Cl , thank you.
A. no

Q. Dear all, I need the recorded test outcome for CC1(C)[C@H](C=C(Cl)Cl)[C@@H]1C(=O)O[C@@H](C#N)c1cccc(Oc2ccccc2)c1 , thank you.
A. no

Q. Dear all, I need the recorded test outcome for CC(C)(CCl)C(=O)Cl , thank you.
A. no

Q. Dear all, I need the recorded test outcome for Cc1ccccc1CCl , thank you.
A. no

Q. Dear all, I need the recorded test outcome for Oc1ccc(Cl)c(Cl)c1Cl , thank you.
A. no

Q. Dear all, I need the recorded test outcome for CN(C)c1ccc(N(C)C)cc1 , thank you.
A. no

Q. Dear all, I need the recorded test outcome for CCOP(=S)(Oc1ccc([N+](=O)[O-])cc1)c1ccccc1 (configuration not stated) , thank you.
A. no

Q. Dear all, I need the recorded test outcome for CS/C(C)=N/OC(=O)N(C)SN(C)C(=O)O/N=C(\C)SC , thank you.
A. no

Q. Dear all, I need the recorded test outcome for O=C=Nc1ccc(Cl)cc1 , thank you.
A. no

Q. Dear all, I need the recorded test outcome for CC(C)=CCOc1c2occc2cc2ccc(=O)oc12 , thank you.
A. no

Q. Dear all, I need the recorded test outcome for Cn1cc[n+](C)c1 (tested in a mixture with another compound) , thank you.
A. no

Q. Dear all, I need the recorded test outcome for CC(C)N(C(=O)COc1nnc(C(F)(F)F)s1)c1ccc(F)cc1 , thank you.
A. no

Q. Dear all, I need the recorded test outcome for CC(O)(CS(=O)(=O)c1ccc(F)cc1)C(=O)Nc1ccc(C#N)c(C(F)(F)F)c1 (configuration not stated) , thank you.
A. no

Q. Dear all, I need the recorded test outcome for C=CCC1([C@H](C)CCC)C(=O)NC(=O)NC1=O , thank you.
A. no

Q. Dear all, I need the recorded test outcome for C/C=C/C=O , thank you.
A. no

Q. Dear all, I need the recorded test outcome for CC(=O)c1cc2c(cc1C)C(C)(C)C(C)CC2(C)C (configuration not stated) , thank you.
A. no

Q. Dear all, I need the recorded test outcome for O=C(O)C1(c2ccc3c(c2)OC[C@H](Cc2ccc(-c4ccccc4)cc2)[C@H]3O)CCCC1 , thank you.
A. yes

Q. Dear all, I need the recorded test outcome for CN1C(=O)NC(=O)C(C)(C2=CCCCC2)C1=O (configuration not stated) , thank you.
A. no

Q. Dear all, I need the recorded test outcome for Brc1ccccc1 , thank you.
A. no

Q. Dear all, I need the recorded test outcome for O=Cc1ccc(Cl)cc1Cl , thank you.
A. no

---

Test: qHTS assay to identify small molecule antagonists of the estrogen related receptor (ERR) signaling pathway from Tox21 library (AID 1224848); further: nearly all actives have a fitted effect of over 50% in size
Conditions: ERR reporter cell line, luciferase antagonist mode, 18 h; series mostly up to 92.4 µM
Source text: U.S. Tox21 Program National Center for Advancing Translational Sciences [NCATS] NIH Chemical Genomics Center [NCGC] U.S. Environmental Protection Agency [EPA] National Institutes of Environmental Health Sciences [NIEHS] National Toxicology Program [NTP] U.S. Food and Drug Administration [FDA] Tox21 Assay Overview: Estrogen related receptors (ERRs), the first orphan nuclear receptors discovered, play an important role in the control of cellular energy metabolism. […]
Records with an inconclusive call do not appear. The source made the active and inactive calls. Calls follow the shape of the dose curve; as a rule, active = well fitted inhibition curve with a large enough effect in the repeat runs; inconclusive = weak or mixed curves; inactive = no such curve, though single readings can be large or run the other way.
Your response should consist of one outcome taken from TRUE (active), FALSE (inactive)

Solved cases below.
CC1(C)CCC(Cc2ccc(Cl)cc2)C1(O)Cn1cncn1 (configuration not stated)	TRUE
O=[N+]([O-])c1cc(C(F)(F)F)cc([N+](=O)[O-])c1Cl	TRUE
C=CC(=O)OCC(C)O (configuration not stated)	FALSE
CCOP(=S)(OCC)SCn1nnc2ccccc2c1=O	TRUE
CCC(Cl)CCl (configuration not stated)	FALSE
C=CC(=O)NCNC(=O)C=C	FALSE

Next item in the queue.
Q. Dear all, I need the recorded test outcome for CC(C)N(C(=O)COc1nnc(C(F)(F)F)s1)c1ccc(F)cc1 , thank you.
A. TRUE
